experiment: Cynomolgus monkey tolerability, hematology (Example 34); format: in vivo, cynomolgus monkeys; conditions: cynomolgus monkey, in vivo, sc, 35 mg/kg
Listed next: entries and their corresponding LUC.

- SUBSTANCE: "1198439 (AGTGTATGTCAGAAGA; sugar, 5-methylcytosine, phosphorothioate modifications, further chemistry not given here) [compound 1198439]"
  LUC, %: 0.6
- SUBSTANCE: "1198728 (TATTAGAGTATGTGGC; modified gapmer, further chemistry not given here) [compound 1198728]"
  LUC, %: 0.9
- SUBSTANCE: "958499 (ATTAGAGTATGTGGCA; 3-10-3 cEt gapmer, further chemistry not given here) [compound 958499]"
  LUC, %: 1.2
- SUBSTANCE: "1198605 (GTAATATTGCAATCTG; modified gapmer, further chemistry not given here) [compound 1198605]"
  LUC, %: 0.5
- SUBSTANCE: "1076453 (GTAATATTGCAATCTG; 3-10-3 cEt gapmer, further chemistry not given here) [compound 1076453]"
  LUC, %: 1.2
